Where these numbers come from: patent US4877795A

Consider the following molecules; for each one, report its inhibition at 1 µg/mL.
# Test system: IgE
# TEST_SUMMARY: Determination of Igs produced in in vitro culture: inhibition of IgE secreted by spleen cells (adoptive secondary immune response to DNP-As), ELISA
# Format: cell-based, BALB/c mice
# MEASUREMENT_PARAMETERS: Mus musculus, 96 h, 1.0 μg/ml, 4 days culture
One number for each entry, in %.

Worked examples, 5 molecules total:
MOLECULE: CSc1c(C#N)c(=O)n2ccc(C)cc2c1C(=O)CCCCc1ccccc1
MEASUREMENT_UNITS: %
inhibition at 1 µg/mL: 60
--
MOLECULE: CSc1c(C#N)c(=O)n2ccccc2c1C(=O)OCc1ccc2ccccc2c1
MEASUREMENT_UNITS: %
inhibition at 1 µg/mL: 86
--
MOLECULE: N#Cc1c(SCc2ccccc2)c(C(=O)N2CCC(Cc3ccccc3)CC2)c2ccccn2c1=O (single isomer, unassigned) [S-84A]
MEASUREMENT_UNITS: %
inhibition at 1 µg/mL: 58
--
MOLECULE: CSc1c(C#N)c(=O)n2ccccc2c1C(=O)OC1CCCCC1
MEASUREMENT_UNITS: %
inhibition at 1 µg/mL: 69
--
MOLECULE: CSc1c(C#N)c(=O)n2ccccc2c1C(=O)OCC(Cl)(Cl)Cl
MEASUREMENT_UNITS: %
inhibition at 1 µg/mL: 68

Hi there! I need inhibition at 1 µg/mL for each item below, if you can.
1. CSc1c(C#N)c(=O)n2ccccc2c1C(=O)OCc1cccc(Cl)c1
2. CSc1c(C#N)c(=O)n2ccccc2c1C(=O)OCC(c1ccccc1)c1ccccc1
3. CSc1c(C#N)c(=O)n2ccccc2c1C(=O)OCc1ccccc1Cl
4. N#Cc1c(SCc2ccccc2)c(C(=O)N2CCC(c3ccccc3)CC2)c2ccccn2c1=O (single isomer, unassigned) [S-83A]

## Output
1. 77
2. 54
3. 65
4. 67
